Hi there, I'd appreciate the recorded phosphorylation enrichment for every entry that follows.
- targetEntity: EPHB1 (UniProt P54762)
- Sequence (P54762 whole entry, looked up): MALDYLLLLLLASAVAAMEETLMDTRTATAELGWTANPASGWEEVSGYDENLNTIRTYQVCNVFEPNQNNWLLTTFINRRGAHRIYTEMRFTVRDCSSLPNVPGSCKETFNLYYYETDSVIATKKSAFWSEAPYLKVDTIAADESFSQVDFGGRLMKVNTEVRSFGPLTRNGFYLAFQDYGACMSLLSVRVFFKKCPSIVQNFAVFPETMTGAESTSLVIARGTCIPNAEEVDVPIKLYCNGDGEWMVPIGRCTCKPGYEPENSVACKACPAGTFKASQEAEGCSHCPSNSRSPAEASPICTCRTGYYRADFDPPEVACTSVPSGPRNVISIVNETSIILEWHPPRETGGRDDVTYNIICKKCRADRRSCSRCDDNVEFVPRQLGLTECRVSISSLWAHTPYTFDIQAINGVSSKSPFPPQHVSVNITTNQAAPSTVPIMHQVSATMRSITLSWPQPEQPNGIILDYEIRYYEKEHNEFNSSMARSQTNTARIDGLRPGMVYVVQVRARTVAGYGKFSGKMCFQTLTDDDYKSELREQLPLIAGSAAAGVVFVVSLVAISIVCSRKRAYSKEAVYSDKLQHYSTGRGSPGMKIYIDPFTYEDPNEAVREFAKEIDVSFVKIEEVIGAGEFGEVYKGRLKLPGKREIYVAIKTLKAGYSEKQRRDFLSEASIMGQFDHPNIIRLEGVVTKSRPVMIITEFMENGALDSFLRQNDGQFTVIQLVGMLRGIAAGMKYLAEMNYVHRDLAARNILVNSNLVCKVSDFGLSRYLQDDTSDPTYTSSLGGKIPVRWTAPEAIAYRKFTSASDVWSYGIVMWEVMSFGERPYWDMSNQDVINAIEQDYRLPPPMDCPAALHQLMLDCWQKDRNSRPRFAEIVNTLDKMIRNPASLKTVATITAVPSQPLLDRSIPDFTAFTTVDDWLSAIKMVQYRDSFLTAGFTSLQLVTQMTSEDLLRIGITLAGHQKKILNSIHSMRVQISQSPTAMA
- runDescription: phosphorylation enrichment, bacterial display (enrichment ratio); higher = better substrate or ligand; peptides without Tyr show the background

> print(dat)
                      sequenceentry             measurementname  assayvalue
1                       IPQEEYTATGL  phosphorylation enrichment       0.622
2  NQDRTYFERVR [SPEN_Y632_S635R_YF]  phosphorylation enrichment       0.473

Field: phosphorylation enrichment. Fill in for each record below.
1. FLENFYDLEKD [MMP3_Y42_K45E_YF]
2. KKGIVYIFNGR [ITGAV_Y404]
3. QEITTYRRLLE [KRT14_Y415_A413T]

Result:
[0.531, 0.403, 0.619]

###

Hi there, I'd appreciate the recorded phosphorylation enrichment for every entry that follows.
- targetEntity: EPHB1 (UniProt P54762)
- runDescription: phosphorylation enrichment, bacterial display (enrichment ratio); higher = better substrate or ligand; peptides without Tyr show the background
Give bare numbers.

> print(dat)
                   sequenceentry  assayvalue
1    YQNGMYGLHQD [SGSH_Y89_H84Y]       0.487
2   PHQTIYGALMI [FGF23_Y70_S71G]       0.679
3  FFHCTYKKRMI [CLEC12A_Y242_YF]       0.444

Field: phosphorylation enrichment. Fill in for each record below.
1. LHAAAYQNALA [UQCRC2_Y182_R183Q]
2. PVKSEYSSIKL [NPC2_Y119_P120S]
3. LFVDVYGPSVP [NUBPL_Y109_D105Y_YF]
4. RAILLYEFVGK [NATD1_Y45_V42I_YF]
5. MFRAGYDTKQE [F10_Y407_C404R]

Result:
[0.433, 0.579, 0.576, 49.4, 0.475]

###

- targetEntity: Fes (UniProt P07332)
- Sequence (P07332 whole entry, looked up): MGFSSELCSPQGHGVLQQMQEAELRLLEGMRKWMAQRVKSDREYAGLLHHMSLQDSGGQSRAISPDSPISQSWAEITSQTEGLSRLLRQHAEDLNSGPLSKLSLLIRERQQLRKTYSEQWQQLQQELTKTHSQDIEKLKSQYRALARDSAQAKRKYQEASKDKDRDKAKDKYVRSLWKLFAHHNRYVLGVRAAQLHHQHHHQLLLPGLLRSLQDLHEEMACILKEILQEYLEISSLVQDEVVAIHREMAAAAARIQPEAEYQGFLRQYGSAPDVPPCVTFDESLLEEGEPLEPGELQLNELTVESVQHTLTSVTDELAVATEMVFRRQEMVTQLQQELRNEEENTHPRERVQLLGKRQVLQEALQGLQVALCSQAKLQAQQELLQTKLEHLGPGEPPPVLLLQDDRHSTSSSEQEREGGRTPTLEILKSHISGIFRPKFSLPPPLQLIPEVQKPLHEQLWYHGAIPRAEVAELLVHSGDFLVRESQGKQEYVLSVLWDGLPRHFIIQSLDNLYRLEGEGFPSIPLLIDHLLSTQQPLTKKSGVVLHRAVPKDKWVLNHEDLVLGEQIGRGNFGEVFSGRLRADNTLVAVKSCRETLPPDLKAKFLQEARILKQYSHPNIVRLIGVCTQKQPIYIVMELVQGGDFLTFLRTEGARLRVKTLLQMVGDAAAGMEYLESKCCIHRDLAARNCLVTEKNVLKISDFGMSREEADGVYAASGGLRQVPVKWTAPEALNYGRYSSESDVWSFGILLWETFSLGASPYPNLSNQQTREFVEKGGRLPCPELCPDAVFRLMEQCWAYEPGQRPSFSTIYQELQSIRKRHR
- runDescription: phosphorylation enrichment, bacterial display (enrichment ratio); higher = better substrate or ligand; peptides without Tyr show the background
measurementName: phosphorylation enrichment

> print(dat)
                       sequenceentry             measurementname  assayvalue
1   PADCRYFTFPQ [GAMT_Y222_A224T_YF]  phosphorylation enrichment        1.53
2      YPKAHYHWLVL [APTX_Y214_R213H]  phosphorylation enrichment        1.15
3       LHVGFYESDVM [A2M_Y708_R704H]  phosphorylation enrichment        1.58
4      YFCRWYRNQKS [EREG_Y144_R147Q]  phosphorylation enrichment        0.48
5  SLHPGYNFRFA [P2RX7_Y291_Y288H_YF]  phosphorylation enrichment       0.904

Field: phosphorylation enrichment. Fill in for each record below.
1. RDMNAYISPSP [MMAA_Y207_R209S]
2. GADAIYDHVNE [UQCR10_Y44_I47V]

Result:
1. 1.03
2. 1.08

###

- targetEntity: Grb2 SH2 (UniProt P62993)
- Sequence (P62993 whole entry, looked up): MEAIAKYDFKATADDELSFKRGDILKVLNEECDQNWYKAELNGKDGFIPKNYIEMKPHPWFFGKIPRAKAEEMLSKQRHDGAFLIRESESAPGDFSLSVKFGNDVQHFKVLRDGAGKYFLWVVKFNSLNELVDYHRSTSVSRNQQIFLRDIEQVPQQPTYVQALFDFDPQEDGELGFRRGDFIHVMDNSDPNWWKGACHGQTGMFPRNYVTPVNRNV
- runDescription: SH2 binding enrichment of the phosphorylated peptide, bacterial display (enrichment ratio); higher = better substrate or ligand; peptides without Tyr show the background
Hi there, I'd appreciate the recorded SH2 binding enrichment for every entry that follows.
One number for each entry.

Worked examples follow.
> print(dat)
                    sequenceentry         measurementname  assayvalue
1                     IPQEEYTATGL  SH2 binding enrichment       0.799
2  CRVEPYGENFN [APOA4_Y310_R305C]  SH2 binding enrichment       0.703
3   LENSTYQYICV [CRB1_Y760_R764C]  SH2 binding enrichment       0.715
4           HKLSYYEYDFE [BTK_Y40]  SH2 binding enrichment        1.05

Field: SH2 binding enrichment. Fill in for each record below.
1. QFPDIYAREEV [CRX_Y67_V66I_YF]
2. KEAVLYPHLPP [SQSTM1_Y383_A381V]

Result:
1: 1.02; 2: 0.911

Field: SH2 binding enrichment. Fill in for each record below.
1. LYSINYLHFGE [KDM4C_Y201]
2. LHAAAYQNALA [UQCRC2_Y182_R183Q]
3. SVTCTYSPAIN [TP53_Y126_L130I]
4. HDHYGYRQSVT [CD55_Y245_R240H]

Result:
1. 1.54
2. 8.54
3. 0.817
4. 0.895

Field: SH2 binding enrichment. Fill in for each record below.
1. TARWEYMHSPS [CPOX_Y429]
2. CSRRLYQLTKL [AR_Y858_F857L]
3. GMSQAYSFSQR [DES_Y5_S7F]
4. VGTKRYMAPEV [ACVRL1_Y375]
5. TYEPNYGTVKQ [RAPGEF6_Y1447]

Result:
1. 1.25
2. 0.641
3. 0.818
4. 0.804
5. 0.748

Field: SH2 binding enrichment. Fill in for each record below.
1. PIDLYYLMDLS [ITGB2_Y131]
2. HSKGIYYVQLE [MGAT4B_Y262_Q257H]
3. SIYKDYYRYNF [PLA2G2D_Y85]
4. LADKPYTFEFF [FXN_Y118_D122Y_YF]

Result:
1. 0.922
2. 1.08
3. 0.983
4. 0.742

###

- Test system: c-Src
- runDescription: phosphorylation enrichment, bacterial display (enrichment ratio); higher = better substrate or ligand; peptides without Tyr show the background
Note to self: values exactly at 0.5 are TRUE. So phosphorylation enrichment at or above 0.5 is TRUE, below is FALSE.

> print(dat)
                     sequenceentry  classname
1  YMRGMYFRMTD [PLA2G6_Y541_K545T]      FALSE
2      LYEDHYLLGTS [ASS1_Y87_R86H]       TRUE

Next sequence, please.
Query: Textbook exercise: given the entry LSIQCYLRALD [HMGCS2_Y262] , state whether its phosphorylation enrichment is greater than or equal to 0.5.
Result: TRUE

###

- targetEntity: EPHB1 (UniProt P54762)
- runDescription: phosphorylation enrichment, bacterial display (enrichment ratio); higher = better substrate or ligand; peptides without Tyr show the background
measurementName: phosphorylation enrichment
Answers are plain numbers.

> print(dat)
                      sequenceentry            targetentity             measurementname  assayvalue
1  CTTIHYIFMCN [TP53_Y234_N235I_YF]  EPHB1 (UniProt P54762)  phosphorylation enrichment       0.511
2     RKPDIYGRLAS [MCM4_Y459_E460G]  EPHB1 (UniProt P54762)  phosphorylation enrichment       0.513

In the following, a different sequence is considered.
Query: What is its phosphorylation enrichment for EPHB1 (UniProt P54762)? Entry: WQQQSYLDSEI [CTNNB1_Y30_G34E]
Result: 0.512

###

- targetEntity: Fes (UniProt P07332)
- runDescription: phosphorylation enrichment, bacterial display (enrichment ratio); higher = better substrate or ligand; peptides without Tyr show the background
measurementName: phosphorylation enrichment
Give bare numbers.

Worked examples follow.
> print(dat)
                  sequenceentry             measurementname  assayvalue
1    SLLVVYPWTQR [HBB_Y36_R31S]  phosphorylation enrichment        1.01
2  KNDSKYVVKGN [KIT_Y823_N822K]  phosphorylation enrichment        0.56
3       RVLKLYGCSPS [ASTL_Y279]  phosphorylation enrichment       0.943

Field: phosphorylation enrichment. Fill in for each record below.
1. YGEYRYRSVIK [CFTR_Y517_D513G]
2. AGVIIYTSRFQ [PFAS_Y538_A535V]

Result:
1. 0.826
2. 1.42

Field: phosphorylation enrichment. Fill in for each record below.
1. RLQEDYDHSFF [ESD_Y258_G257D_YF]
2. FSEVRYMKEPF [HIPK4_Y170_V171M_YF]
3. QELRRYLKSGI [MICA_Y194_V199I]
4. KDQGTYEDYVE [MYL6_Y86]
5. GYRVCYTPDSR [PTPRF_Y451_Y450C]

Result:
1. 1.55
2. 0.821
3. 0.458
4. 1.23
5. 1.26

###

- targetEntity: SHP2-C SH2
- runDescription: SH2 binding enrichment of the phosphorylated peptide, bacterial display (enrichment ratio); higher = better substrate or ligand; peptides without Tyr show the background
measurementName: SH2 binding enrichment

> print(dat)
                    sequenceentry  assayvalue
1  RGYRQYAYDGK [HLA-A_Y140_D140Y]       0.607
2        LGKLIYPVGFW [NTHL1_Y177]        1.55
3        VQDPAYLRDID [OPRK1_Y369]        1.04

Query: I have this sequence here, ITNLLYHLVGW [GBA_Y412_V414L] , and I need its recorded SH2 binding enrichment.
Result: 1.84
